Target: UniProt P23443
Sequence (P23443 whole entry): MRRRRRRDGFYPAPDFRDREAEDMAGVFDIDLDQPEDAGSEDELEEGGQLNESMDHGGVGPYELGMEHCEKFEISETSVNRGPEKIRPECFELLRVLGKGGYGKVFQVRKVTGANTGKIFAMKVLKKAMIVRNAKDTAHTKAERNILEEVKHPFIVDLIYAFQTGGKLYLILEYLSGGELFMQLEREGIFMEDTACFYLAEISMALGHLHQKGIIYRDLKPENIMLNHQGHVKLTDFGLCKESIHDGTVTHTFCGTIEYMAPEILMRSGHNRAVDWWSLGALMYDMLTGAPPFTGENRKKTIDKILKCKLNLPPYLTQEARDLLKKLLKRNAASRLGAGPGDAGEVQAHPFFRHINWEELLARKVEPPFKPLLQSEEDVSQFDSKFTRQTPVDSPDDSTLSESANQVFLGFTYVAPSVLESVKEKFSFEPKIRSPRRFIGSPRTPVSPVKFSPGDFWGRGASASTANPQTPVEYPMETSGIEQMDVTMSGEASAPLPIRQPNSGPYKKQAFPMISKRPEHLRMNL
Assay: Z'-LYTE SelectScreen biochemical kinase assay RPS6KB1 (p70S6K)
Settings: read-out: % Inhibition mean RPS6KB1 (p70S6K)
Assay Metric: inhibition at 10 µM (%)
Write the answer as a number in %, unit excluded.

Would you please look over these solved cases?
>  <Compound>
Cc1cc(F)ccc1-c1cccn2nc(NC3CCc4cnn(C)c4C3)nc12 (stereo not drawn)

>  <Readout Number>
19

$$$$
>  <Compound>
CCCn1ncc2c1CCC(Nc1nc3c(-c4ccc(F)cc4C)cccn3n1)C2 (stereo not drawn)

>  <Readout Number>
3

$$$$
>  <Compound>
CCn1ncc2c1CCC(Nc1nc3c(-c4cnccc4OC)cccn3n1)C2 (stereo not drawn)

>  <Readout Number>
17

$$$$
>  <Compound>
CCn1ncc2c1CCC(Nc1nc3c(-c4cncc(Cl)c4)cccn3n1)C2 (stereo not drawn)

>  <Readout Number>
24

$$$$
>  <Compound>
CCn1ncc2c1CCC(Nc1nc3c(-c4cccnc4)cccn3n1)C2 (stereo not drawn)

>  <Readout Number>
3

$$$$

// recorded inhibition at 10 µM for Cc1cc(F)ccc1-c1cccn2nc(NC3CCc4c(cnn4C(C)C)C3)nc12 (stereo not drawn) : 12

// CCn1ncc2c1C(C)CC(Nc1nc3c(-c4cc(F)c(F)c(F)c4)cccn3n1)C2 (stereo not drawn) : inhibition at 10 µM value = 33

Form: compound = CCn1ncc2c1CCC(Nc1nc3c(-c4ccc(F)cc4C)cccn3n1)C2 (stereo not drawn) ; inhibition at 10 µM = 6

# inhibition at 10 µM (compound: CCn1nc(Cl)c2c1CCC(Nc1nc3c(-c4ccc(F)cc4C)cccn3n1)C2 (stereo not drawn) ) is 15

====

Let's look at some compounds and their measured inhibition at 10 µM.
Biological target: FGFR1 (Homo sapiens, UniProt P11362)
Sequence (P11362 22-822): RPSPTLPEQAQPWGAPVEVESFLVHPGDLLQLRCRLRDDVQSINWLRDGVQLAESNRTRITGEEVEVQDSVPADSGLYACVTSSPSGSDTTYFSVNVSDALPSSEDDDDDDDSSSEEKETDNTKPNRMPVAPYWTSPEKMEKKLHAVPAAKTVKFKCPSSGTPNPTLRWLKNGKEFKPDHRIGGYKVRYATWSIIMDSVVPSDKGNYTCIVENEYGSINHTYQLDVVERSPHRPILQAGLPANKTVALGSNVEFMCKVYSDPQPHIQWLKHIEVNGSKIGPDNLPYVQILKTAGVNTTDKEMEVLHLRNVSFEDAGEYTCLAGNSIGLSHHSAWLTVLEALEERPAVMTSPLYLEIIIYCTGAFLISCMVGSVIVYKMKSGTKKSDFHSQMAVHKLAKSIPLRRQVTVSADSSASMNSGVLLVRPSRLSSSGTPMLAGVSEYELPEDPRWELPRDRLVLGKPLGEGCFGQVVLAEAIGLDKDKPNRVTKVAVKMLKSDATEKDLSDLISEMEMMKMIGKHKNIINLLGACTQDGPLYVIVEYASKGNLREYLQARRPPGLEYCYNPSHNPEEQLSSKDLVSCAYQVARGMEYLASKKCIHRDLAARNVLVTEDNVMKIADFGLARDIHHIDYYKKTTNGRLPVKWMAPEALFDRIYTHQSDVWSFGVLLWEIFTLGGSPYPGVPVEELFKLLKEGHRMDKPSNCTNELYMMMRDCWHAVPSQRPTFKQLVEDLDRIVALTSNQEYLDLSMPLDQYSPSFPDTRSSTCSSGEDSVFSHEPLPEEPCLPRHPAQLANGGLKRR
Test: Z'-LYTE SelectScreen biochemical kinase assay FGFR1
Settings: read-out: % Inhibition mean FGFR1
Numeric answer only, unit % assumed.

Consider the following illustrative entries.
>  <Compound>
Cc1cc(F)ccc1-c1cccn2nc(NC3CCc4c(cnn4C)C3)nc12 (stereo not drawn) [Example 10]

>  <inhibition at 10 µM, %>
15

$$$$
>  <Compound>
CCn1ncc2c1CCC(Nc1nc3c(-c4ccccc4)cccn3n1)C2 (stereo not drawn) [Example 57]

>  <inhibition at 10 µM, %>
23

$$$$
>  <Compound>
CCn1ncc2c1CCC(Nc1nc3c(-c4cnccc4OC)cccn3n1)C2 (stereo not drawn) [Example 68]

>  <inhibition at 10 µM, %>
23

$$$$
>  <Compound>
CCn1ncc2c1CCC(Nc1nc3c(-c4ccc(F)cc4)cccn3n1)C2 (stereo not drawn) [Example 55]

>  <inhibition at 10 µM, %>
12

$$$$
>  <Compound>
Cc1cc(F)ccc1-c1cccn2nc(Nc3ccc4c(cnn4C)c3)nc12 [Example 9]

>  <inhibition at 10 µM, %>
35

$$$$
>  <Compound>
CCn1nnc2c1CCC(Nc1nc3c(-c4ccc(F)cc4C)cccn3n1)C2 (stereo not drawn) [Example 51]

>  <inhibition at 10 µM, %>
5

$$$$
>  <Compound>
CCn1ncc2c1CCC(Nc1nc3c(-c4cccc(Cl)c4)cccn3n1)C2 (stereo not drawn) [Example 59]

>  <inhibition at 10 µM, %>
22

$$$$
>  <Compound>
CCn1ncc2c1CCC(Nc1nc3c(-c4cncc(Cl)c4)cccn3n1)C2 (stereo not drawn) [Example 73]

>  <inhibition at 10 µM, %>
32

$$$$

Tested on FGFR1 (Homo sapiens, UniProt P11362), the item Cc1cc(F)ccc1-c1cccn2nc(NC3CCc4cnn(C)c4C3)nc12 (stereo not drawn) [Example 40] showed inhibition at 10 µM equal to 27

Result for Cc1cc(F)ccc1-c1cccn2nc(NC3CCc4c(cnn4CC(C)C)C3)nc12 (stereo not drawn) [Example 45] , tested on FGFR1 (Homo sapiens, UniProt P11362), inhibition at 10 µM: 9

Recorded inhibition at 10 µM for CCn1ncc2c1CC[C@@H](Nc1nc3c(-c4ccc(F)c(Cl)c4)cccn3n1)C2 [Example R-61] on FGFR1 (Homo sapiens, UniProt P11362) was 15

Entry CCn1nc(Cl)c2c1CCC(Nc1nc3c(-c4ccc(F)cc4C)cccn3n1)C2 (stereo not drawn) [Example 48] , FGFR1 (Homo sapiens, UniProt P11362) data, inhibition at 10 µM value: 18

Known value: FGFR1 (Homo sapiens, UniProt P11362) inhibition at 10 µM of the compound CCn1ncc2c1CCC(Nc1nc3c(-c4ccccc4C)cccn3n1)C2 (stereo not drawn) [Example 56] equals 20
